- Measurement Target: Cat L (UniProt P07711)
- Assay Protocol: Cathepsin enzyme inhibition assay (fluorogenic peptide substrate Z-Val-Val-Arg-AMC), Cathepsin L
- Assay type: biochemical, human and mouse
- Settings: enzyme 1 nM, substrate 20 μM, pH 6.5; read-out: CatL IC50
Exercise: for every item that follows, state its recorded pIC50.
Friendly reminder that pIC50 comes from taking -log10 of the concentration in mol/L.

Looking for the measured pIC50 of `N#CC1(NC(=O)[C@@H]2C[C@@H](S(=O)(=O)c3ccccc3Cl)CN2C(=O)C2(c3ccc(Cl)c(F)c3)CC2)CC1` , can you help? 7.67

Looking for the measured pIC50 of `N#CC1(NC(=O)[C@@H]2C[C@@H](S(=O)(=O)c3ccc(OCC(F)(F)F)cc3Cl)CN2C(=O)C2(C(F)(F)F)CC2)CC1` , can you help? 5.05

Looking for the measured pIC50 of `CC(C)(C)OC(=O)NC1(C(=O)N2C[C@H](S(=O)(=O)c3ccc(OCC(F)(F)F)cc3Cl)C[C@H]2C(=O)NC2(C#N)CC2)CC1` , can you help? 5.84

Looking for the measured pIC50 of `N#CC1(NC(=O)[C@@H]2C[C@@H](S(=O)(=O)c3ccc(N4CCn5cnnc5C4)cc3Cl)CN2C(=O)C2(C(F)(F)F)CC2)CC1` , can you help? 5.81

Looking for the measured pIC50 of N#CC1(NC(=O)[C@@H]2C[C@@H](S(=O)(=O)c3ccc(OCC(F)(F)F)cc3Cl)CN2C(=O)C2CC2c2ccccc2)CC1 (stereo partly shown) [Example 247] , can you help? 5.46

Looking for the measured pIC50 of `N#CC1(NC(=O)[C@@H]2C[C@@H](S(=O)(=O)c3ccc(OCC(F)(F)F)cc3Cl)CN2C(=O)C2(c3ccc(C(F)(F)F)cc3)CC2)CC1` , can you help? 6.66

Looking for the measured pIC50 of `N#CC1(NC(=O)[C@@H]2C[C@@H](S(=O)(=O)c3ccc(OC4COC4)cc3Cl)CN2)CC1` , can you help? 4.78

Looking for the measured pIC50 of `C[C@H](Oc1ccc(S(=O)(=O)[C@@H]2C[C@@H](C(=O)NC3(C#N)CC3)N(C(=O)OC(C)(C)C)C2)c(Cl)c1)C(F)(F)F` , can you help? 4.62

Looking for the measured pIC50 of `N#CC1(NC(=O)[C@@H]2C[C@@H](S(=O)(=O)c3ccc(OCC(F)(F)F)cc3Cl)CN2C(=O)C2(c3ccccc3)CCOCC2)CC1` , can you help? 5.50

Looking for the measured pIC50 of `N#CC1(NC(=O)[C@@H]2C[C@@H](S(=O)(=O)c3ccccc3C(F)(F)F)CN2C(=O)C2(c3ccc(Cl)nc3)CC2)CC1` , can you help? 6.00

Looking for the measured pIC50 of CC(Oc1ccc(S(=O)(=O)[C@H]2CN[C@H](C(=O)NC3(C#N)CC3)C2)c(Cl)c1)C(F)(F)F (stereo partly shown) , can you help? 4.69

Looking for the measured pIC50 of `Cc1ccc(C2(C(=O)N3C[C@H](S(=O)(=O)c4ccc(OCC(F)(F)F)cc4Cl)C[C@H]3C(=O)NC3(C#N)CC3)CC2)cc1` , can you help? 6.09

Looking for the measured pIC50 of `N#CC1(NC(=O)[C@@H]2C[C@@H](S(=O)(=O)c3ccc(OCC(F)(F)F)cc3Cl)CN2C(=O)C2(c3ccc(Cl)cc3)CCCC2)CC1` , can you help? 6.24

Looking for the measured pIC50 of `N#CC1(NC(=O)[C@@H]2C[C@@H](S(=O)(=O)c3ccccc3Cl)CN2S(=O)(=O)c2ccc(-c3cnco3)cc2)CC1` , can you help? 5.32

Looking for the measured pIC50 of `CC(=O)N1C[C@H](S(=O)(=O)c2ccccc2Cl)C[C@H]1C(=O)NC1(C#N)CC1` , can you help? 4.53

Looking for the measured pIC50 of `Cc1cc(N2C[C@H](S(=O)(=O)c3ccccc3Cl)C[C@H]2C(=O)NC2(C#N)CC2)n(-c2ccc(C(F)(F)F)cc2)n1` , can you help? 5.86

Looking for the measured pIC50 of `N#CC1(NC(=O)[C@@H]2C[C@@H](S(=O)(=O)c3ccc(-c4ccnc(Cl)c4)cc3C(F)(F)F)CN2C(=O)C2(C(F)(F)F)CC2)CC1` , can you help? 4.41

Looking for the measured pIC50 of `N#CC1(NC(=O)[C@@H]2C[C@@H](S(=O)(=O)c3ccc(OCC(F)(F)F)cc3Cl)CN2C(=O)C2(c3cccc(Br)c3)CC2)CC1` , can you help? 6.24

Looking for the measured pIC50 of `C[C@H](Oc1ccc(S(=O)(=O)[C@@H]2C[C@@H](C(=O)NC3(C#N)CC3)N(C(=O)C3(C)CC3)C2)c(Cl)c1)C(F)(F)F` , can you help? 5.11

Looking for the measured pIC50 of `N#CC1(NC(=O)[C@@H]2C[C@@H](S(=O)(=O)c3ccccc3Cl)CN2C(=O)C2(c3ccc(C(F)(F)F)cc3)CC2)CC1` , can you help? 7.02
